Data credit: patent US6881741B2

biological target: HCV NS3 enzyme (ATPase activity of HCV NS3 helicase) (Hepatitis C virus genotype 1b, UniProt P26663); experiment: ATPase activity of HCV NS3 helicase, HPLC Assay; type: biochemical; settings: ADP produced measured by paired-ion HPLC, 1 nM enzyme, read-out: Anti-ATPase (HPLC method) EC50
Sequence (P26663 1027-1657 limits assumed): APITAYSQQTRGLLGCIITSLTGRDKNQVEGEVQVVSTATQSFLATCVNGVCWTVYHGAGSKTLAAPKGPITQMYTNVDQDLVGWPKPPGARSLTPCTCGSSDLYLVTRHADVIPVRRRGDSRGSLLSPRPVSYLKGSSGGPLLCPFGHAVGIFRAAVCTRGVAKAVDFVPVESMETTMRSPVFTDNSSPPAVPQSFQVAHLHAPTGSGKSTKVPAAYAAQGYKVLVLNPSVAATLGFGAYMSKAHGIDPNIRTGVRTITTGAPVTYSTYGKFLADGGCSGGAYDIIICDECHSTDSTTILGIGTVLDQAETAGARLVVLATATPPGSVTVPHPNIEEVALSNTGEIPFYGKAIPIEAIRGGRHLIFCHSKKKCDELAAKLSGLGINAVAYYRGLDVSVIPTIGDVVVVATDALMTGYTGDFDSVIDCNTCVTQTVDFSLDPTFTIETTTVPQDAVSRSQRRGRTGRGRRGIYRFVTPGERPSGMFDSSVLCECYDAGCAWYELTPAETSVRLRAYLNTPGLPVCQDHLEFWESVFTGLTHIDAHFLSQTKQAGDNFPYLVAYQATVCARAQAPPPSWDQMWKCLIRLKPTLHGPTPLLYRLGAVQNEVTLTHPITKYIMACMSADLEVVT
Can you tell me EC50 for the items I'm about to list?

**Query** Form field: reported EC50 of `CC(C)Cc1ccc(-c2cc(NS(=O)(=O)c3cc(OCC(F)(F)F)ccc3OCC(F)(F)F)c(C(=O)O)s2)cc1`
**Result** > 20 µM

**Query** Try the compound `CC(C)Cc1ccc(-c2cc(NS(=O)(=O)c3ccc(-c4cc(C(F)(F)F)on4)s3)c(C(=O)O)s2)cc1`
**Result** 5 to 20 µM

**Query** Try the compound `CC(C)Cc1ccc(-c2cc(NS(=O)(=O)c3ccc(F)c(F)c3F)c(C(=O)O)s2)cc1`
**Result** > 20 µM

**Query** Try the compound `COc1cccc(S(=O)(=O)Nc2cc(-c3ccc(CC(C)C)cc3)sc2C(=O)O)c1`
**Result** > 20 µM

**Query** Try the compound `Cc1cc(S(=O)(=O)Nc2cc(-c3ccc(CC(C)C)cc3)sc2C(=O)O)c(C)cc1Cl`
**Result** 5 to 20 µM

**Query** Try the compound `CC(C)Cc1ccc(-c2cc(NS(=O)(=O)c3ccc(Br)cc3F)c(C(=O)O)s2)cc1`
**Result** < 5 µM

**Query** Try the compound `Cc1cc(Br)ccc1S(=O)(=O)Nc1cc(-c2ccc(CC(C)C)cc2)sc1C(=O)O`
**Result** 5 to 20 µM

**Query** Try the compound `CC(C)Cc1ccc(-c2cc(NS(=O)(=O)c3ccc(C#N)cc3Cl)c(C(=O)O)s2)cc1`
**Result** > 20 µM

* * *

Can you tell me pIC50 for the items I'm about to list?
biological target: recombinant HCV NS5B (HCV RNA-dependent RNA polymerase) (Hepatitis C virus genotype 1b); test: biochemical; conditions: related polymerase activity (Example 27 list); read-out: IC50
Sequence (P26663 2420-3010 limits assumed): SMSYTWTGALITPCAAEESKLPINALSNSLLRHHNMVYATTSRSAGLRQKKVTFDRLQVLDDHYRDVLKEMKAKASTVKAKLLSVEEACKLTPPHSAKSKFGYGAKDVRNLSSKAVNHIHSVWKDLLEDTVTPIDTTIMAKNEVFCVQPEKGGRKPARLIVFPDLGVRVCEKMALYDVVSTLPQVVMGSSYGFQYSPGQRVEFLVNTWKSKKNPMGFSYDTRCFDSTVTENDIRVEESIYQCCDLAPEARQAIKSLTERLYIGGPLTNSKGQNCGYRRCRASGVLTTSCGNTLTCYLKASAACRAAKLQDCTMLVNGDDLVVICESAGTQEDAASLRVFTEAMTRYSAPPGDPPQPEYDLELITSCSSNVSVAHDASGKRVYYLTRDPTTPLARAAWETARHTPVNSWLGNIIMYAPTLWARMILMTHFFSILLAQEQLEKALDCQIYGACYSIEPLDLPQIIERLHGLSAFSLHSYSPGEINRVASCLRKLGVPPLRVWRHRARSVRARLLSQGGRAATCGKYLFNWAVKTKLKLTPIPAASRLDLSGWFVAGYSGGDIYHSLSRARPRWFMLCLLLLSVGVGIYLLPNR
pIC50: −log10 of the molar value.

**Query** Request body: readout pIC50, system recombinant HCV NS5B (HCV RNA-dependent RNA polymerase) (Hepatitis C virus genotype 1b), query Cc1ccc(C(=O)N(C)c2cc(-c3cccc(N)c3)sc2C(=O)O)cc1 [Compound 271] . Return the value.
**Result** 4.70 to 5.30

**Query** Try the molecule CCCN(C(=O)c1ccc(C)cc1)c1cc(-c2cccc(CCC(=O)O)c2)sc1C(=O)O [Compound 325]
**Result** 4.70 to 5.30

**Query** Try the molecule CCN(C(=O)CCC1CCCC1)c1cc(-c2ccccc2)sc1C(=O)O [Compound 392]
**Result** > 5.30

**Query** Try the molecule O=C(O)c1sc(-c2ccccc2)cc1NS(=O)(=O)c1ccccc1F [Compound 30]
**Result** 4.70 to 5.30

**Query** Try the molecule N#Cc1ccc(-c2cc(NS(=O)(=O)c3ccc(Cl)cc3)c(C(=O)O)s2)cc1 [Compound 289]
**Result** > 5.30

**Query** Try the molecule O=C(O)c1sc(-c2ccccc2)cc1NS(=O)(=O)c1ccccc1 [Compound 17]
**Result** 4.70 to 5.30

**Query** Try the molecule C=CCN(C(=O)c1ccc(C)cc1)c1cc(-c2ccc(/C=C/C(=O)O)cc2)sc1C(=O)O [Compound 312]
**Result** > 5.30

**Query** Try the molecule O=C(O)c1sc(-c2ccccc2)cc1NS(=O)(=O)c1cc(Cl)c(O)c(Cl)c1 [Compound 169]
**Result** 4.70 to 5.30
